Target: IRE1α (ERN1) (Homo sapiens, UniProt O75460)
Sequence (O75460 19-977): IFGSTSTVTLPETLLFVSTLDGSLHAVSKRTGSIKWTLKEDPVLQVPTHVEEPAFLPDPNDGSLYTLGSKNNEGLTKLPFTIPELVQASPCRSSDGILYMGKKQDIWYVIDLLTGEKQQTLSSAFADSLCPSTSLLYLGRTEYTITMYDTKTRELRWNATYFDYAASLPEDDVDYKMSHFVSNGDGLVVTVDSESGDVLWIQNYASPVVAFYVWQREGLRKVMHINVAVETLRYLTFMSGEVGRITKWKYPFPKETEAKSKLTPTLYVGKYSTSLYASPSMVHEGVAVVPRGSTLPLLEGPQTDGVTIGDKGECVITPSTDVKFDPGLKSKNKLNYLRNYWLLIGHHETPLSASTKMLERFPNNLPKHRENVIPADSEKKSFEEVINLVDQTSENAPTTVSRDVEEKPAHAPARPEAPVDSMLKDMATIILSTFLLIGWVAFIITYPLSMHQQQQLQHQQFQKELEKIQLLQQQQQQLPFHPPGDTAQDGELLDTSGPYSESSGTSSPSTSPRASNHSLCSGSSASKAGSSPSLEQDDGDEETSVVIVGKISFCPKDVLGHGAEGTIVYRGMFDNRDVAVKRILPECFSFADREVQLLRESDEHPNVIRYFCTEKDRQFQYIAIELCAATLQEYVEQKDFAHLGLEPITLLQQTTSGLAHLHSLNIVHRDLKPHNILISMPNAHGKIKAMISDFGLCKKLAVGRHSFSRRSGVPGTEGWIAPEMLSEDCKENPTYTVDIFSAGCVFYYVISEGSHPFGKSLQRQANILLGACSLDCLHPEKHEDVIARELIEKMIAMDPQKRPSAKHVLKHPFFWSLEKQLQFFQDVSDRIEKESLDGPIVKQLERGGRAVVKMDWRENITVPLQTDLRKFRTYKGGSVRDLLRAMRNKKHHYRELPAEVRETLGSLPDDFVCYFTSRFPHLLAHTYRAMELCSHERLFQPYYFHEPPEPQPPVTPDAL
Experiment: LanthaScreen Eu kinase binding assay, IRE1α
Settings: Conc. 5560 nM; duplicates; read-out: IRE1a Kinase Displacement(%)
inhibition at 5.56 µM values for the compounds below.
Please make sure the unit comes right after the number.

Solved entries:
INSERT INTO results (given_smiles, result) VALUES
  ('COc1ccc2c(c1)c(CCC(=O)O)c(C)n2C(=O)c1ccccc1', '104%'),
  ('Cc1c(CCC(=O)O)c2cc(Br)ccc2n1C(=O)c1ccccc1', '88%'),
  ('COc1ccc2c(c1)c(CCC(=O)O)c(C)n2C(=O)c1ccc(Cl)cc1', '50%');

From here, focus on the item given below.
Requested read-out inhibition at 5.56 µM, target or system IRE1α (ERN1) (Homo sapiens, UniProt O75460), entry `COc1ccc2c(c1)c(CCC(=O)O)c(C)n2C(=O)c1cc2ccccc2s1`
35%
